- Test system: pBlueScript SK+ plasmid DNA
- assayDetails: In vitro DNA-binding assay (gel retardation)
- measurementParameters: 100 ng pBlueScript SK+, peptide 8-500 µg/mL, 1 h room temperature, 1% agarose
Where no end group is shown, it is not given here.
quantityKind: Binding to DNA in vitro (concentration inhibiting plasmid migration)

// Binding to DNA in vitro (concentration inhibiting plasmid migration) value for WRWWKWWK-NH2 [Peptide W8] : ≥ 16 µg/mL

What the record says about WRWWKWW-NH2 [Peptide W7] : Binding to DNA in vitro (concentration inhibiting plasmid migration) is ≥ 16 µg/mL

Entry RRRRWRWWRWWRR-NH2 [Peptide R8] — recorded Binding to DNA in vitro (concentration inhibiting plasmid migration) = ≥ 64 µg/mL

Entry under test: WRWWKWW-NH2 [dW7, diastereomeric counterpart of W7] . Its Binding to DNA in vitro (concentration inhibiting plasmid migration) was ≥ 32 µg/mL

====

- System: S. aureus ATCC25923
- Assay type: cell-based, Staphylococcus aureus
- measurementParameters: MHB, 37 °C overnight, A595; mode of three independent experiments
Where no end group is shown, it is not given here.
quantityKind: MIC S. aureus ATCC25923 (µg/mL)
Reply numerically in µg/mL, unit not repeated.

- substance: "WWRWWKWW-NH2 [dWW, diastereomeric counterpart of WW]"
  targetOrSystem: "S. aureus ATCC25923"
  observedMeasurement: 8
- substance: "WRWWKWW-NH2 [Peptide W7]"
  targetOrSystem: "S. aureus ATCC25923"
  observedMeasurement: 8
- substance: "RWWKWW-NH2 [Peptide R6]"
  targetOrSystem: "S. aureus ATCC25923"
  observedMeasurement: 16
- substance: "WRWWKWW-NH2 [dW7, diastereomeric counterpart of W7]"
  targetOrSystem: "S. aureus ATCC25923"
  observedMeasurement: 8
- substance: "WRWWKWWK-NH2 [Peptide W8]"
  targetOrSystem: "S. aureus ATCC25923"
  observedMeasurement: 8
- substance: "RWWKWWK-NH2 [Peptide R7]"
  targetOrSystem: "S. aureus ATCC25923"
  observedMeasurement: 16

Field: next substance
Short answer for WWRWWKWW-NH2 [WW] : MIC S. aureus ATCC25923 was 8

====

- Tested on: NIH-3T3 cells
- assayDetails: Cytotoxicity, MTT assay
- Assay type: cell-based, mouse
- measurementParameters: 24 h, peptide up to 250 µg/mL, concentration causing 50% cell growth inhibition, mean of triplicate assays
Where no end group is shown, it is not given here.
quantityKind: IC50 NIH-3T3 (µg/mL)
Respond numerically; units are µg/mL and should not be typed.

Example entries and their recorded answers appear below.
- substance: "RWWKWWK-NH2 [Peptide R7]"
  quantityKind: "IC50 NIH-3T3"
  observedMeasurement: 250
- substance: "RKRWWRWWKWWKR-NH2 [Peptide P1]"
  quantityKind: "IC50 NIH-3T3"
  observedMeasurement: 250
- substance: "RKRWWRWWKWWKR-NH2 [dP1, diastereomeric counterpart of P1]"
  quantityKind: "IC50 NIH-3T3"
  observedMeasurement: 250

Moving on to another substance below.
WWRWWKWW-NH2 [dWW, diastereomeric counterpart of WW] has a reported IC50 NIH-3T3 of 250

====

Known MIC E. coli, With 150mM NaCl of a selection of substances
- Tested on: E. coli ATCC25922
- Format: cell-based, Escherichia coli
- measurementParameters: MHB, 150 mM NaCl; triplicate, mode
Where no end group is shown, it is not given here.
Use µg/mL as the unit, but write only the number.

- substance: "RKRWWRWWKWWKR-NH2 [dP1, diastereomeric counterpart of P1]"
  MIC E. coli, With 150mM NaCl, µg/mL: 16
- substance: "WRWWKWW-NH2 [Peptide W7]"
  MIC E. coli, With 150mM NaCl, µg/mL: 4
- substance: "RKRWWRWWKWWKR-NH2 [Peptide P1]"
  MIC E. coli, With 150mM NaCl, µg/mL: 16

Turning now to a further record.
# MIC E. coli, With 150mM NaCl (substance: WRWWKWW-NH2 [dW7, diastereomeric counterpart of W7] ) is 8

====

Parameter MIC E. coli, With 150mM NaCl: see the listing below.
- Tested on: E. coli ATCC25922
- Assay type: cell-based, Escherichia coli
- measurementParameters: MHB, 150 mM NaCl; triplicate, mode
Where no end group is shown, it is not given here.
// note: answer is a bare numeric in µg/mL

Record excerpt, results attached:
- substance: "WWRWWKWW-NH2 [dWW, diastereomeric counterpart of WW]"
  MIC E. coli, With 150mM NaCl / µg/mL: 8
- substance: "WRWWKWWK-NH2 [Peptide W8]"
  MIC E. coli, With 150mM NaCl / µg/mL: 4
- substance: "RRRRWRWWRWWRR-NH2 [Peptide R8]"
  MIC E. coli, With 150mM NaCl / µg/mL: 64

Let's switch to this substance now.
Value of MIC E. coli, With 150mM NaCl reported for the substance WWRWWKWW-NH2 [WW] is 8

Data origin, for the record: paper PMC7696940
